Measured IC50 values are reported for all entries that follow.
Biological target: TcPTP (Homo sapiens, UniProt P17706)
Sequence (P17706 whole entry): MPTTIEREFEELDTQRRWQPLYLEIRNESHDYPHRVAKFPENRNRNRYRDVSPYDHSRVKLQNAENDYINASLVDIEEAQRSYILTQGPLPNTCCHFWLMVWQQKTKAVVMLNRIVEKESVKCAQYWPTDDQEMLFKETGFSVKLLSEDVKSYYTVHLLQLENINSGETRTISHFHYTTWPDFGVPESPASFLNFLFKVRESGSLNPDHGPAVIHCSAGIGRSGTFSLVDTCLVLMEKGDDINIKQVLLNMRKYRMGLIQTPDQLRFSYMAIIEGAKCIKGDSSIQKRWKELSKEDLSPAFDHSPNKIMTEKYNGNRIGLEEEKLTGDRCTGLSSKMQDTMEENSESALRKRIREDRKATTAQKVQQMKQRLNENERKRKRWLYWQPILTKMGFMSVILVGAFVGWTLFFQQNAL
Experiment: PTP inhibition assay (pNPP)
Type: biochemical
Conditions: IC50 TcPTP

Cc1c(Br)cc(NC(=O)C(c2ccccc2)S(=O)(=O)O)cc1Br (centres unmarked) : > 100 µM

So for O=C(Nc1ccc(-c2ccccc2)cc1)C(c1ccccc1)S(=O)(=O)O (centres unmarked) , the logged IC50 turned out to be > 200 µM

---

Target: LMWPTP (Homo sapiens, UniProt P24666)
Sequence (P24666 whole entry): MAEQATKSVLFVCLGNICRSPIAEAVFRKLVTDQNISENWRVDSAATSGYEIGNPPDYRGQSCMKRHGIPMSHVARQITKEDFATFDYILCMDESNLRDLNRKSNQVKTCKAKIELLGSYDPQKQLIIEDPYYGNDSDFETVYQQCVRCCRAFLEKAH
Test: PTP inhibition assay (pNPP)
Format: biochemical
Conditions: pNPP at Km, pH 7.0, 25° C.
Reported IC50 is given for each of the following compounds.
Answer format: numeric, µM implied, no suffix.

LMWPTP (Homo sapiens, UniProt P24666) IC50 of O=C(Nc1nc2ccc(OC(F)(F)F)cc2s1)C(c1ccccc1)S(=O)(=O)O (centres unmarked) is 5.3

Entry O=C(O)c1ccc2nc(NC(=O)C(c3ccccc3)S(=O)(=O)O)sc2c1 (centres unmarked) under LMWPTP (Homo sapiens, UniProt P24666) had IC50 of 70

Short answer on LMWPTP (Homo sapiens, UniProt P24666) for O=C(CS(=O)(=O)O)Nc1nc2ccccc2s1 , IC50: 2.1

---

Target: UniProt P24666
Assay: PTP inhibition assay (pNPP)
Format: biochemical
Conditions: pH 7
measuredProperty: pIC50
Notebook: values listed as pIC50 are -log10 of the concentration (mol/L).

As a guide, the following entries are already answered.
O=C(Nc1ccc(N2CCOCC2)cc1)C(c1ccccc1)S(=O)(=O)O (stereo not shown) : 5.09
O=C(Nc1cnc2ccccc2c1)C(c1ccccc1)S(=O)(=O)O (stereo not shown) : 5.14
O=C(Nc1ccc2nc(C(F)(F)F)[nH]c2c1)C(c1ccccc1)S(=O)(=O)O (stereo not shown) : 5.25
Cc1c(Br)cc(NC(=O)C(c2ccccc2)S(=O)(=O)O)cc1Br (stereo not shown) : 5.28
O=C(Nc1ccc(-n2ccnc2)cc1)C(c1ccccc1)S(=O)(=O)O (stereo not shown) : 5.11

Noted for O=C(Nc1nc2ccccc2s1)C(c1ccccc1)S(=O)(=O)O (stereo not shown) : its pIC50 reads 5.15

Lab book: pIC50 of O=C(Nc1ccc(OCc2ccccc2)c(Cl)c1)C(c1ccccc1)S(=O)(=O)O (stereo not shown) noted as 4.92

---

Biological target: SHP2 (Homo sapiens, UniProt Q06124)
Sequence (Q06124 224-528): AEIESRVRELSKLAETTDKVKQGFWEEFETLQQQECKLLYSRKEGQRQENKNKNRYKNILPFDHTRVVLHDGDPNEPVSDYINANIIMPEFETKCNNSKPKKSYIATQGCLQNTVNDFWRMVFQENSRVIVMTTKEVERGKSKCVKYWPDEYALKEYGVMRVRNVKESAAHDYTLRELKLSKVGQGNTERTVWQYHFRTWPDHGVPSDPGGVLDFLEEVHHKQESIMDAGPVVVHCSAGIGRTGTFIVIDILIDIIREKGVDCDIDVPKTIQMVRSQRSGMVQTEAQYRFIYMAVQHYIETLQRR
Experiment: SHP2 phosphatase inhibition assay (pNPP)
Format: biochemical
Conditions: pNPP at Km, pH 7.0, 25° C.; read-out: IC50 SHP2
measuredProperty: IC50

Cc1cccc2sc(NC(=O)C(c3ccccc3)S(=O)(=O)O)nc12 (stereo not shown) : 129 µM
COc1ccc2nc(NC(=O)C(c3ccccc3)S(=O)(=O)O)sc2c1 (stereo not shown) : > 200 µM
O=C(Nc1nc2c(Cl)cccc2s1)C(c1ccccc1)S(=O)(=O)O (stereo not shown) : 41 µM

The compound O=C(C(c1ccccc1)S(=O)(=O)O)N1CCC(Cc2ccccc2)CC1 (stereo not shown) showed IC50 equal to > 200 µM

// IC50 value for Nc1ccc2nc(NC(=O)C(c3ccccc3)S(=O)(=O)O)sc2c1 (stereo not shown) : 190 µM

Form field IC50, entry O=C(Nc1ccc(NC(=O)C(c2ccccc2)S(=O)(=O)O)cc1)C(=O)Nc1ccc(-c2ccccc2)cc1 (stereo not shown) : 1.4 µM

Documented IC50 of O=C(Nc1cnc2ccccc2c1)C(c1ccccc1)S(=O)(=O)O (stereo not shown) : > 200 µM

For reference, reported IC50 for O=C(Nc1nc(-c2ccccc2)cs1)C(c1ccccc1)S(=O)(=O)O (stereo not shown) stands at 31 µM

Noted for O=C(Nc1nc2ccc(OC(F)(F)F)cc2s1)C(c1ccccc1)S(=O)(=O)O (stereo not shown) : its IC50 reads 47 µM

Lookup result for O=C(Nc1cccc(NC(=O)C(c2ccccc2)S(=O)(=O)O)c1)C(=O)Nc1ccc(OCc2ccccc2)c(Cl)c1 (stereo not shown) ; measured IC50: 7.5 µM

The reported IC50 of the compound O=C(CS(=O)(=O)O)Nc1nc2ccccc2s1 was > 100 µM

Consider O=C(Nc1nc2ccccc2s1)C(c1ccc([N+](=O)[O-])cc1)S(=O)(=O)O (stereo not shown) . Its measured IC50 is 135 µM

Per the record, CCOC(=O)c1ccc2nc(NC(=O)C(c3ccccc3)S(=O)(=O)O)sc2c1 (stereo not shown) has IC50 of 55 µM

// sample O=C(Nc1nc2ccc(F)cc2s1)C(c1ccccc1)S(=O)(=O)O (stereo not shown) , its IC50 was 173 µM

The measured IC50 associated with O=C(NCc1ccc(NC(=O)C(c2ccccc2)S(=O)(=O)O)cc1)c1ccccc1-c1ccc(C(F)(F)F)cc1 (stereo not shown) reads 69 µM

The recorded IC50 for entry O=C(Nc1ccc(NC(=O)C(c2ccccc2)S(=O)(=O)O)cc1)c1ccc(-c2ccc(Cl)cc2Cl)o1 (stereo not shown) equals 7.9 µM

// provenance: patent US10494332B2
